target: ERα (Homo sapiens, UniProt P03372)
Sequence (P03372 1-595): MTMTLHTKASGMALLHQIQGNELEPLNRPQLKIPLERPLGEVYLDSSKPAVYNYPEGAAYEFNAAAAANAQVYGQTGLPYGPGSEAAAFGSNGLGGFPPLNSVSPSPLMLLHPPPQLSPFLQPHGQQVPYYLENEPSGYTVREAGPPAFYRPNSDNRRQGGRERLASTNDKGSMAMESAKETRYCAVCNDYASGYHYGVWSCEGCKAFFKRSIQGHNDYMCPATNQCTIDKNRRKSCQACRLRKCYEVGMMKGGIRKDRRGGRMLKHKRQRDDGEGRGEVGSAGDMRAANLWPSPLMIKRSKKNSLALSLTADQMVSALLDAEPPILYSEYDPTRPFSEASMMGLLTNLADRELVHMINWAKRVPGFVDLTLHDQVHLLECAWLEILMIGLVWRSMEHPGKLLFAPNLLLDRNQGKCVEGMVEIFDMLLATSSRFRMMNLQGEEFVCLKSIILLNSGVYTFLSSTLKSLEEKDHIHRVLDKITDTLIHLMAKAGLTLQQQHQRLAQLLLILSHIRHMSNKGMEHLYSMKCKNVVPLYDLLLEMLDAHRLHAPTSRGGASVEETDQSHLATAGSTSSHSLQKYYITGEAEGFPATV
assay-remarks: Phage ELISA / fingerprint on ER immobilized on biotinylated ERE (Examples 2.3-2.5)
Format: binding
Design: purchased PanVera Corporation, Madison, WI; key: semiquantitative scale of 0 to 7+; 1+: semiquantitative scale of 0 to 7+; 2+: semiquantitative scale of 0 to 7+; 3+: semiquantitative scale of 0 to 7+; 4+: semiquantitative scale of 0 to 7+; 5+: semiquantitative scale of 0 to 7+; 6+: semiquantitative scale of 0 to 7+; semiquantitative scale of 0 to 7+
experimental-setup: ERα and estradiol (1 µM)
readout-kind: binding activity, ERα and estradiol

• SSRTPILFSLLETSR [Peptide 11E-β] = 5+
• SRNLLCLLDQEACSR [Peptide 17E-β] = 4+
• SSYEIPKWALQWLSR [Peptide 34E-β] = 3+
• SSWPNPTFWERQLSR [Peptide 3b-β] = 3+
• SSTTMFDFFYERLSR [Peptide 6t-β] = 4+

Give binding activity, ERα and estradiol for each listed item.
1. SRLPPSVFSMCGSEVCLSR [Peptide 9t-β]
2. SSIKDFPNLISLLSR [Peptide 12E-β]
3. SSRTLYCHLTSSNPEWCSR [Peptide 27E-β]

**Result**
1: 3+; 2: 2+; 3: 6+
